experiment: Observed apparent volume of distribution in Wistar rat at 5 mg/kg, iv; format: ADME, organism-based; settings: in vivo, read-out: Vz
outcomeMeasure: Vd (L/kg)
Express it in L/kg; write the number only.

CC(C)(C)c1[nH]cnc1/C=c1\[nH]c(=O)/c(=C/c2ccccc2)[nH]c1=O [PLINABULIN] : 11.4

*Q* State its Vd for this compound: "[2H]/C(c1nc[nH]c1C(C)(C)C)=c1/[nH]c(=O)/c(=C/c2ccccc2)[nH]c1=O"
*A* 7.72

====

assay: Observed AUC (0 to infinity) in Wistar rat at 5 mg/kg, iv; assay type: ADME, organism-based; design: dose 5 mg/kg, time infinity, route intravenous; conditions: in vivo
outcomeMeasure: AUC(0-inf) (ng·h/mL)
Give just the numeric value; ng·h/mL need not be written.

CC(C)(C)c1[nH]cnc1/C=c1\[nH]c(=O)/c(=C/c2ccccc2)[nH]c1=O [PLINABULIN] : 723

We next turn to a different compound, shown below.
*Q* Query AUC(0-inf) for "[2H]/C(c1nc[nH]c1C(C)(C)C)=c1/[nH]c(=O)/c(=C/c2ccccc2)[nH]c1=O"
*A* 1520

====

test: Cmax in Wistar rat at 5 mg/kg, iv; assay type: ADME, organism-based; design: dose 5 mg/kg, route intravenous; details: in vivo
Consider the following molecules and their measured Cmax readings.
Give just the number in ng/mL; leave the unit off.

[2H]/C(c1nc[nH]c1C(C)(C)C)=c1/[nH]c(=O)/c(=C/c2ccccc2)[nH]c1=O : 7280

Let us examine a further case.
*Q* Give the value of Cmax reported for the following: CC(C)(C)c1[nH]cnc1/C=c1\[nH]c(=O)/c(=C/c2ccccc2)[nH]c1=O [PLINABULIN]
*A* 5040

====

test: Drug uptake in tumor of nude mouse xenografted with human NCI-H460 cells at 3 mg/kg, iv administered every 2 days for 21 days; assay type: ADME, organism-based, Neoplasm; details: read-out: Drug uptake
outcomeMeasure: concentration at 21 days
Put down the number, then write its unit next to it.

*Q* Respond only with concentration at 21 days recorded for "[2H]/C(c1nc[nH]c1C(C)(C)C)=c1/[nH]c(=O)/c(=C/c2ccccc2)[nH]c1=O"
*A* 316 ng/g

====

assay: Drug uptake in tumor of nude mouse xenografted with human NCI-H460 cells at 12 mg/kg, iv administered every 2 days for 21 days; assay type: ADME, organism-based, Neoplasm; conditions: read-out: Drug uptake
outcomeMeasure: concentration at 21 days (ng/g)
Give a bare numeral; the unit ng/g is implied.

*Q* State its concentration at 21 days for this molecule: "[2H]/C(c1nc[nH]c1C(C)(C)C)=c1/[nH]c(=O)/c(=C/c2ccccc2)[nH]c1=O"
*A* 2490

====

assay: Drug uptake in tumor of nude mouse xenografted with human NCI-H460 cells at 6 mg/kg, iv administered every 2 days for 21 days; type: ADME, organism-based, Neoplasm; details: read-out: Drug uptake
outcomeMeasure: concentration at 21 days
Write the numeric value and follow it with the unit.

*Q* Please supply the value of reported concentration at 21 days for the item "[2H]/C(c1nc[nH]c1C(C)(C)C)=c1/[nH]c(=O)/c(=C/c2ccccc2)[nH]c1=O"
*A* 809 ng/g

====

assay: Observed clearance in Wistar rat at 5 mg/kg, iv; format: ADME, organism-based; details: in vivo
Recorded clearance, one value per entry.

[2H]/C(c1nc[nH]c1C(C)(C)C)=c1/[nH]c(=O)/c(=C/c2ccccc2)[nH]c1=O : 58.8 mL/min/kg

Now let's try a different one.
*Q* Tell us which clearance value is on record for CC(C)(C)c1[nH]cnc1/C=c1\[nH]c(=O)/c(=C/c2ccccc2)[nH]c1=O [PLINABULIN]
*A* 121 mL/min/kg

The reported measurements were obtained from ChEMBL document CHEMBL3997832.
